target: AnkR_repeats (Mus musculus, UniProt Q02357); construct: thioredoxin-His6 (N); made in house; host or cells: Escherichia coli BL21 (DE3); experiment: ITC binding to AnkR_repeats; conditions: VP-ITC, 25°C, 50 mM Tris, 100 mM NaCl, 1 mM EDTA, 1 mM DTT, pH 7.5, one-site binding model, ND = no detectable binding
Sequence (Q02357 5-816): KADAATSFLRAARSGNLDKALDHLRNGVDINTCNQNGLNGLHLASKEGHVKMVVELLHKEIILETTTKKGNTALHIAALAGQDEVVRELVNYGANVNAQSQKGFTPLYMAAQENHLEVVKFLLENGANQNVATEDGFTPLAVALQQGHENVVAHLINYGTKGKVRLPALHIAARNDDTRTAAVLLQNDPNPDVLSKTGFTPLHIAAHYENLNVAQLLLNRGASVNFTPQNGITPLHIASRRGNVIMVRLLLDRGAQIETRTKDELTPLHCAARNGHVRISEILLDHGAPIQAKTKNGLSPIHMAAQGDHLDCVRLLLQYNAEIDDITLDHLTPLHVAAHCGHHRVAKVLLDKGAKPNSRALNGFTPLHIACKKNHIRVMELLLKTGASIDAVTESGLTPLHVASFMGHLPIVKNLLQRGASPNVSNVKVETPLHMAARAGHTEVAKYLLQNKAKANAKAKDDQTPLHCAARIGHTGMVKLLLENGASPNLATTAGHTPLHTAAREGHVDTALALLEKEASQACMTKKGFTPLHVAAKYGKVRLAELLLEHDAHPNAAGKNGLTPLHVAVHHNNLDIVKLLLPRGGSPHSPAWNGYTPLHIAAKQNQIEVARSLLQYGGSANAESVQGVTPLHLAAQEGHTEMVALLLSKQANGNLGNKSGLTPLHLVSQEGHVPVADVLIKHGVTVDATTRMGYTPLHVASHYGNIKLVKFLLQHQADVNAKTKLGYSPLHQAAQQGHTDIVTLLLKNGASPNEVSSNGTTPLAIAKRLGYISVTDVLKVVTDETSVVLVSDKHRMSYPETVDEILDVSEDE
pKd: −log10 of the molar value. Where no end group is shown, it is not given here.
measured metric: pKd

- query sequence: "CADQYWNEVAVIDAIPLAATEHDTMLEMSDMQVWSAGLTPSLVTAEDS [AnkR_AS]"
  measured metric: "pKd"
  observed result: 6.44
